- experiment.notes: MRP1 drug-resistance reversers in H69AR cells – cell-based, doxorubicin co-treatment, pilot screen (AID 601)
- protocol.conditions: H69AR cells + 2 uM doxorubicin, CellTiter-Glo, 72 h; measured here: viability with 2 uM doxorubicin; at 10 µM; stronger effect = lower value
Threshold 80%: viability strictly smaller gives True, otherwise False.

| molecule | assigned.label |
| --- | --- |
| CC1CCN(C(=O)CSc2nc3c(cnn3-c3ccccc3)c(=O)[nH]2)CC1 | True |

*Q* Dear reviewer, please state whether Clc1cccc(N2CCN(Cc3nc(-c4ccccc4)no3)CC2)c1 has viability strictly beneath 80%.
*A* False

*Q* Dear reviewer, please state whether CCOC(=O)C1=C(C)N(C)C(=O)NC1c1cccc(O)c1 (centres undefined) has viability strictly beneath 80%.
*A* False

*Q* Dear reviewer, please state whether CC1(C)Oc2ccc3ccc(=O)oc3c2C(N2CCCCC2)C1O (centres undefined) has viability strictly beneath 80%.
*A* False

*Q* Dear reviewer, please state whether O=C(c1ccc(CSCc2ccccc2F)o1)N1CCN(c2ccc(N3CCOCC3)nn2)CC1 has viability strictly beneath 80%.
*A* False

*Q* Dear reviewer, please state whether CC(C)(O)C#Cc1ccc(C(=O)N2CCN(C(=O)c3ccco3)CC2)cc1 has viability strictly beneath 80%.
*A* False

*Q* Dear reviewer, please state whether COC(=O)NCC(c1cccnc1)N1CCOCC1 (centres undefined) has viability strictly beneath 80%.
*A* False

All values here come from PubChem BioAssay.
